System: NCI/ADR-RES ovarian
Assay: NCI-60 one-dose screen, 48 h (100 = growth as untreated, 0 = no growth, -100 = all killed)
Details: 10 µM unless noted
The panel holds about 83,000 compounds, 20% with a hit somewhere; the sample as a whole holds those more often.
reported.endpoint: growth (%)

[[record]]
molecule = "COc1ccc(CCN2CCCN3C2=Nc2ccccc2S3(=O)=O)cc1"
reported_endpoint = "growth"
reported_measurement = 15.8

[[record]]
molecule = "COc1ccc(C2=NN(C(C)=O)C(c3cc(OC)c(OC)c(OC)c3)C2)cc1 (stereo not given)"
reported_endpoint = "growth"
reported_measurement = 83

[[record]]
molecule = "O=C(CN1CCCCC1)Sc1nnc2sc3ccccc3n12"
reported_endpoint = "growth"
reported_measurement = 100

[[record]]
molecule = "CC/C(=C\\c1ccc(N(C)C)cc1)c1nc2ccccc2c(=O)[nH]1"
reported_endpoint = "growth"
reported_measurement = 98.3

[[record]]
molecule = "O=C(N1CCC(CN=c2cc3n(-c4ccc(Cl)cc4)c4ccccc4nc-3cc2Nc2ccc(Cl)cc2)CC1)N1CC1"
reported_endpoint = "growth"
reported_measurement = -45.5

[[record]]
molecule = "COc1ccc2nccc(/C=C/c3ccnc4ccc(OC)cc34)c2c1"
reported_endpoint = "growth"
reported_measurement = 101

[[record]]
molecule = "CCCc1nn(C)c2c(=O)[nH]c(-c3cc(S(=O)(=O)N4CCN(C)CC4)ccc3OCC)nc12"
reported_endpoint = "growth"
reported_measurement = 90.2

[[record]]
molecule = "CCCCCCCCCCCCCCCCN=C(CC(=O)O)C(=O)O"
reported_endpoint = "growth"
reported_measurement = 105

[[record]]
molecule = "COc1cc2cn3c4ccc(O)cc4nc(N)c3c2cc1OC"
reported_endpoint = "growth"
reported_measurement = 42.4

[[record]]
molecule = "O=C1Nc2ccc(F)cc2/C1=C/c1nc(-c2ccc(F)cc2)n2ccccc12"
reported_endpoint = "growth"
reported_measurement = 112

